- RUN DESCRIPTION: gradient 5% acetonitrile 3 min, to 50% in 2 min, to 85% in 15 min, held 3 min, 100 µL/min
- CONDITION DETAILS: column: Zorbax Extend-C18 2.1 x 50 mm; eluents: water / acetonitrile, 0.1% formic acid
MEASURED ATTRIBUTE: RP-LC retention time (s)
Write the answer as a number in s, unit excluded.

COMPOUND: COc1cc([C@@H]2c3cc4c(cc3[C@H](O)[C@@H](CO)[C@@H]2C(=O)NCc2cc(F)ccc2F)OCO4)cc(OC)c1OC
RP-LC retention time / s: 718

COMPOUND: CCc1c(C2CCN(C(=O)c3cccc(C#N)c3)CC2)noc1N
RP-LC retention time / s: 690

COMPOUND: CN1CCO[C@@H](C(=O)NC2CC2)[C@@H]1c1ccccc1
RP-LC retention time / s: 562

COMPOUND: Cc1ccc(C(=O)NCC2CCCN(S(=O)(=O)c3c(C)cc(C)cc3C)C2)cc1 (stereo not given)
RP-LC retention time / s: 1060

*Q* Entry COCCOC1CCC12CCN(C(=O)c1cn[nH]c1)CC2 (stereo not given) has what RP-LC retention time?
*A* 617
